Reported thermal shift delta Tm values are given for each entry in this list.
System: LOC_OS05G07850-cb002
procedure text: thermal shift delta Tm vs DMSO control; higher = stronger stabilization (binding);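 note: purified Escherichia coli-expressed rice kinase domain construct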
setup conditions: 12.5 µM; protein concentration 2 µM
Counter-ions that a name gives are not always drawn.
Entry rule: numbers only, all in °C.

Illustrative cases are given below, each with its answer.
| molecule | thermal shift delta Tm, °C |
| --- | --- |
| CC1(C)OCCn2c1nc1c(N3CCOCC3)nc(-c3cnc(N)nc3)nc12 | 1.01 |
| O=C(NC[C@H](O)CO)c1ccncc1Nc1ccc(I)cc1F | 0.04 |
| CCCCCCCCc1ccc(CCC(N)(CO)CO)cc1 [Fingolimod (FTY720) HCl] | 1.83 |
| CN(C)Cc1cccc(N/C(=C2\C(=O)Nc3cc(C(N)=O)ccc32)c2ccccc2)c1 | 5.34 |
| COC(=O)[C@]12CCC(C)(C)C[C@H]1[C@H]1C(=O)C=C3[C@@]4(C)C=C(C#N)C(=O)C(C)(C)[C@@H]4CC[C@@]3(C)[C@]1(C)CC2 | -6.24 |
| C=C[C@@](C)(/C=C/c1ccc(O)cc1)CCC=C(C)C | 0.26 |
| O=c1nc(N2CCOCC2)oc2c(-c3cccc4c3sc3ccccc34)cccc12 | 1.07 |
| CO[C@H]1C[C@@H]2CC[C@@H](C)[C@@](O)(O2)C(=O)C(=O)N2CCCC[C@H]2C(=O)O[C@H]([C@H](C)C[C@@H]2CC[C@@H](OP(C)(C)=O)[C@H](OC)C2)CC(=O)[C@H](C)/C=C(\C)[C@@H](O)[C@@H](OC)C(=O)[C@H](C)C[C@H](C)/C=C/C=C/C=C/1C | 0.02 |

// query Look up and report measured thermal shift delta Tm for this entry: CN(C[C@@H]1COCCO1)S(=O)(=O)Nc1ccc2ccc3ncc(-c4cnn(C)c4)cc3c(=O)c2c1
// result 10.5

// query Look up and report measured thermal shift delta Tm for this entry: C=CC(=O)Nc1ccc(CN2C(=O)N(c3cc(OC)cc(OC)c3)Cc3cnc(Nc4ccc(N5CCN(C)CC5)cc4)nc32)cc1
// result 0.75

---

Test system: LOC_OS06G22820-cb001
Sequence (as listed by the source): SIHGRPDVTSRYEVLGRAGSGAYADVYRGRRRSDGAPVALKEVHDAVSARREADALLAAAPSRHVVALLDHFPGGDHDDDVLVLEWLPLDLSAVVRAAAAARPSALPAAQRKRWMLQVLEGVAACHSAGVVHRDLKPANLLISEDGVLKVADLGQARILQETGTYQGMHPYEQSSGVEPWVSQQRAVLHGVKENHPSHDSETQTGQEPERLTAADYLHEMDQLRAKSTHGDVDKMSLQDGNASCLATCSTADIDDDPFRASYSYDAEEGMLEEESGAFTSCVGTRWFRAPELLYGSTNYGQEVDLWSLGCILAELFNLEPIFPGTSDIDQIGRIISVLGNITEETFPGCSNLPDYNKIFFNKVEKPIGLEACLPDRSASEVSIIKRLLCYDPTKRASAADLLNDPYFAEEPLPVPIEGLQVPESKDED
procedure text: thermal shift delta Tm vs DMSO control; higher = stronger stabilization (binding)
setup conditions: 12.5 µM; protein concentration 2 µM
Reported thermal shift delta Tm values are given for each entry in this list.
Entry rule: numbers only, all in °C.

| compound | readout label | test result |
| --- | --- | --- |
| C=CC(=O)Nc1cccc(Nc2nc(Nc3ccc(OCCOC)cc3)ncc2F)c1 | thermal shift delta Tm | 0.96 |
| CS(=O)(=O)N1CCc2c(-c3cnc(N)nc3)nc(N3CCOCC3)nc21 | thermal shift delta Tm | 0.66 |
| Cc1ccccc1CN1C2=NCCN2C(=O)C2=C1CCN(Cc1ccccc1)C2 [TIC10 Analogue] | thermal shift delta Tm | 0.74 |
| Oc1cccc(-c2nc(N3CCOCC3)c3oc4ncccc4c3n2)c1 | thermal shift delta Tm | 0.82 |
| Oc1cc(CNC(=S)/C=C/c2cc(O)c(O)c(Br)c2)cc(O)c1O | thermal shift delta Tm | 2.08 |
| COc1ccc(Cl)c(Nc2nc3ccccc3nc2NS(=O)(=O)c2cccc(NC(=O)C(C)(C)N)c2)c1 [Pilaralisib (XL147)] | thermal shift delta Tm | 2.03 |
| O=C(Cc1ccc(-c2ccc(OCCN3CCOCC3)cc2)cn1)NCc1ccccc1 | thermal shift delta Tm | 0.6 |
| C[C@@H](Oc1cc(-c2cnn(C3CCNCC3)c2)cnc1N)c1c(Cl)ccc(F)c1Cl | thermal shift delta Tm | 0.95 |
| COc1cc2c(Oc3ccc4[nH]c(C)cc4c3F)ncnc2cc1OCCCN1CCCC1 [Cediranib (AZD2171)] | thermal shift delta Tm | 0.55 |
| O=c1nc(N2CCOCC2)oc2c(-c3cccc4c3sc3ccccc34)cccc12 | thermal shift delta Tm | 0.33 |

// query Look up and report measured thermal shift delta Tm for this entry: CCNC(=O)Nc1ccc(-c2nc(N3CCOC[C@@H]3C)c3c(n2)C(C)(C)S(=O)(=O)C3)cc1
// result 0.67

// query Look up and report measured thermal shift delta Tm for this entry: CC1(C)CNc2cc(NC(=O)c3cccnc3NCc3ccncc3)ccc21 [Motesanib Diphosphate (AMG-706)]
// result 0.37
